Tested on: bile acid sulfate sulfatase
Method: Inhibition and activation of the present Enzyme by additives
Type: biochemical, Pseudomonas testosteroni
Condition: additive 1 mM; no additive = 100

- Compound: "[Cl][Hg][Cl] [Mercuric chloride]"
  Unit Annotation: "%"
  Relative Activity: 90
- Compound: "O=C(O)CN(CCN(CC(=O)O)CC(=O)O)CC(=O)O"
  Unit Annotation: "%"
  Relative Activity: 38
- Compound: "c1cnc2c(c1)ccc1cccnc12"
  Unit Annotation: "%"
  Relative Activity: 37
- Compound: "c1ccc(-c2ccccn2)nc1"
  Unit Annotation: "%"
  Relative Activity: 97

---

Tested on: bile acid sulfate sulfatase
Method: Inhibition and activation of the present Enzyme by additives
Assay type: biochemical, Pseudomonas testosteroni
Condition: additive 2 mM; no additive = 100
Relative Activity by entry:

- Compound: "[F-].[Na+] [Sodium fluoride]"
  Relative Activity [%]: 98
- Compound: "[Cl][Co][Cl] [Cobalt chloride]"
  Relative Activity [%]: 92
- Compound: "O=S(=O)([O-])[O-].[Zn+2] [Zinc sulfate]"
  Relative Activity [%]: 95
- Compound: "O=S(=O)([O-])[O-].[Cu+2] [Copper sulfate]"
  Relative Activity [%]: 94
- Compound: "[Cl][Cd][Cl] [Cadmium chloride]"
  Relative Activity [%]: 98
- Compound: "O=S(=O)([O-])[O-].[Mg+2] [Magnesium sulfate]"
  Relative Activity [%]: 101
- Compound: "[Cl][Hg][Cl] [Mercuric chloride]"
  Relative Activity [%]: 71
- Compound: "[Cl][Mn][Cl] [Manganese chloride]"
  Relative Activity [%]: 111

All values here come from patent US5091305A.
